Test system: HTB-68 (NRAS mutation)
Experiment: MTT cell viability assay, HTB-68 melanoma
Format: cell-based, human
Conditions: Homo sapiens, 24 h
propertyMeasured: IC50

For orientation, consider the following solved cases.
> print(dat)
                                   molecule   result
1  C=C1C(=O)OC2CC3=C[C@@H](C/C(C)=C/C(OC(=O)/C=C(\C)C(C)C)[C@H]12)OC3=O (stereo partly drawn)  > 10 µM
2  C=C1C(=O)OC2CC3=C[C@@H](C/C(C)=C/C(OC(=O)C=C(C)CCC=C(C)C)[C@H]12)OC3=O (stereo partly drawn)  > 10 µM
3  C=C1C(=O)OC2CC3=C[C@@H](C/C(C)=C/C(OC(=O)C(C)CCC)[C@H]12)OC3=O (stereo partly drawn)  > 10 µM
4  C=C1C(=O)OC2CC3=C[C@@H](C/C(C)=C/C(OC(=O)C(C)CC)[C@H]12)OC3=O (stereo partly drawn)  > 10 µM
5  C=C1C(=O)OC2CC3=C[C@@H](C/C(C)=C/C(OC(=O)/C=C/c4ccc(C)cc4)[C@H]12)OC3=O (stereo partly drawn)  > 10 µM

Proceed to the following item.
**Q:** IC50 lookup needed for C=C1C(=O)OC2CC3=C[C@@H](C/C(C)=C/C(OC(=O)c4cc5ccccc5s4)[C@H]12)OC3=O (stereo partly drawn) , thanks.
**A:** > 10 µM

###

Tested on: B16-F10 (NRAS mutation)
Test: MTT cell viability assay, B16-F10 melanoma
Type: cell-based
Conditions: Mus musculus, B16-F10, 24 h, 24 h, read-out: IC50 on cell viability, B16-F10 (NRAS mutation)
propertyMeasured: pIC50
Bear in mind: pIC50 is minus log10 of a mol/L concentration; give just that figure.

For orientation, consider the following solved cases.
> print(dat)
                                   molecule            targetofassay  numericvalue
1  C=C1C(=O)OC2CC3=C[C@@H](C/C(C)=C/[C@@H](OC(=O)Cc4csc5ccccc45)[C@H]12)OC3=O (stereo partly drawn)  B16-F10 (NRAS mutation)          5.25
2  C=C1C(=O)OC2CC3=C[C@@H](C/C(C)=C/[C@@H](OC(=O)C(C)(OC)c4ccc5ccccc5c4)[C@H]12)OC3=O (stereo partly drawn)  B16-F10 (NRAS mutation)          5.32

**Q:** pIC50 lookup needed for C=C1C(=O)O[C@H]2CC3=C[C@@H](C/C(C)=C/[C@@H](OC(=O)c4ccc(OC)cc4)[C@H]12)OC3=O , thanks.
**A:** 5.38

**Q:** pIC50 lookup needed for C=C1C(=O)OC2CC3=C[C@@H](C/C(C)=C/C(OC(=O)/C=C/c4cc(OC)c(OC)c(OC)c4)[C@H]12)OC3=O (stereo partly drawn) , thanks.
**A:** 5.32

**Q:** pIC50 lookup needed for C=C1C(=O)OC2CC3=C[C@@H](C/C(C)=C/C(OC(=O)[C@H](C)c4ccc5cc(OC)ccc5c4)[C@H]12)OC3=O (stereo partly drawn) , thanks.
**A:** 5.18

**Q:** pIC50 lookup needed for C=C1C(=O)OC2CC3=C[C@@H](C/C(C)=C/C(OC(=O)c4ccc(Br)cc4)[C@H]12)OC3=O (stereo partly drawn) , thanks.
**A:** 5.70

**Q:** pIC50 lookup needed for C=C1C(=O)OC2CC3=C[C@@H](C/C(C)=C/[C@@H](OC(=O)[C@H](OC)c4ccc5ccccc5c4)[C@H]12)OC3=O (stereo partly drawn) , thanks.
**A:** 5.09

**Q:** pIC50 lookup needed for C=C1C(=O)OC2CC3=C[C@@H](C/C(C)=C/C(OC(=O)Cc4ccc5cc(OC)ccc5c4)[C@H]12)OC3=O (stereo partly drawn) , thanks.
**A:** 5.27

**Q:** pIC50 lookup needed for C=C1C(=O)OC2CC3=C[C@@H](C/C(C)=C/C(OC(=O)Cc4cccc5cc(OC)ccc45)[C@H]12)OC3=O (stereo partly drawn) , thanks.
**A:** 5.35

###

System: A2058 (BRAF mutation)
Experiment: MTT cell viability assay, A2058 melanoma
Type: cell-based, human
Details: Homo sapiens, A2058, 24 h
propertyMeasured: IC50

> print(dat)
                                   molecule   result
1  C=C1C(=O)OC2CC3=C[C@@H](C/C(C)=C/C(OC(=O)C(Cl)Cl)[C@H]12)OC3=O (stereo partly drawn)  > 10 µM
2  C=C1C(=O)OC2CC3=C[C@@H](C/C(C)=C/C(OC(=O)C=C(C)C)[C@H]12)OC3=O (stereo partly drawn)  > 10 µM

Proceed to the following item.
**Q:** IC50 lookup needed for C=C1C(=O)OC2CC3=C[C@@H](C/C(C)=C/C(OC(=O)/C=C/c4ccc(C)cc4)[C@H]12)OC3=O (stereo partly drawn) , thanks.
**A:** > 10 µM

###

System: HTB-68 (NRAS mutation)
Assay: MTT cell viability assay, HTB-68 melanoma
Type: cell-based, human
Conditions: Homo sapiens, 24 h
pIC50: −log10 of the molar value.
propertyMeasured: pIC50

For orientation, consider the following solved cases.
> print(dat)
                                   compound  result
1  C=C1C(=O)O[C@H]2CC3=C[C@@H](C/C(C)=C/[C@@H](OC(=O)c4ccc(OC)cc4)[C@H]12)OC3=O  < 5.00
2  C=C1C(=O)OC2CC3=C[C@@H](C/C(C)=C/C(OC(=O)C(C)CCCC)[C@H]12)OC3=O (stereo partly shown)  < 5.00
3  C=C1C(=O)OC2CC3=C[C@@H](C/C(C)=C/C(OC(=O)/C=C/c4ccco4)[C@H]12)OC3=O (stereo partly shown)  < 5.00

Proceed to the following item.
**Q:** pIC50 lookup needed for C=C1C(=O)OC2CC3=C[C@@H](C/C(C)=C/C(OC(=O)CC(O)(C(C)C)C(C)C)[C@H]12)OC3=O (stereo partly shown) , thanks.
**A:** < 5.00

###

Test system: MeWo (No NRAS or BRAF mutation)
Experiment: MTT cell viability assay, MeWo melanoma
Type: cell-based, human
Details: Homo sapiens, MeWo, 24 h
Here, each record is paired with measured IC50 data.

For orientation, consider the following solved cases.
> print(dat)
                                   compound   result
1  C=C1C(=O)OC2CC3=C[C@@H](C/C(C)=C/[C@H](OC(=O)Cc4cccc5ccccc45)[C@H]12)OC3=O (some centres unmarked)  > 10 µM
2  C=C1C(=O)OC2CC3=C[C@@H](C/C(C)=C/[C@@H](OC(=O)[C@H](OC)c4ccc5ccccc5c4)[C@H]12)OC3=O (some centres unmarked)  > 10 µM
3  C=C1C(=O)O[C@H]2CC3=C[C@@H](C/C(C)=C/[C@@H](OC(=O)/C=C/c4ccccc4)[C@H]12)OC3=O   9.9 µM
4  C=C1C(=O)OC2CC3=C[C@@H](C/C(C)=C/C(OC(=O)C4CCCC4)[C@H]12)OC3=O (some centres unmarked)  > 10 µM

**Q:** IC50 lookup needed for C=C1C(=O)OC2CC3=C[C@@H](C/C(C)=C/C(OC(=O)c4ccc(C)cc4)[C@H]12)OC3=O (some centres unmarked) , thanks.
**A:** 6.7 µM

###

Test system: A2058 (BRAF mutation)
Assay: MTT cell viability assay, A2058 melanoma
Type: cell-based, human
Conditions: Homo sapiens, A2058, 24 h
propertyMeasured: IC50

For orientation, consider the following solved cases.
> print(dat)
                                   molecule  propertymeasured   result
1  C=C1C(=O)OC2CC3=C[C@@H](C/C(C)=C/C(OC(=O)C4CC4)[C@H]12)OC3=O (stereo partly drawn)              IC50  > 10 µM
2  C=C1C(=O)OC2CC3=C[C@@H](C/C(C)=C/C(OC(=O)/C=C/c4cccc(C(F)(F)F)c4)[C@H]12)OC3=O (stereo partly drawn)              IC50  > 10 µM

Proceed to the following item.
**Q:** Form entry - test system: A2058 (BRAF mutation); read-out: IC50; molecule: C=C1C(=O)OC2CC3=C[C@@H](C/C(C)=C/C(OC(=O)/C=C/c4cccc(OCC)c4)[C@H]12)OC3=O (stereo partly drawn)
**A:** 8.7 µM

###

Tested on: MeWo (No NRAS or BRAF mutation)
Experiment: MTT cell viability assay, MeWo melanoma
Format: cell-based, human
Settings: Homo sapiens, MeWo, 24 h
pIC50: −log10 of the molar value.
propertyMeasured: pIC50

For orientation, consider the following solved cases.
> print(dat)
                                   molecule  result
1  C=C1C(=O)OC2CC3=C[C@@H](C/C(C)=C/C(OC(=O)/C=C/c4ccc(OC)cc4)[C@H]12)OC3=O (stereo partly shown) [DETD-26]  < 5.00
2  C=C1C(=O)OC2CC3=C[C@@H](C/C(C)=C/[C@@H](OC(=O)/C=C/c4ccc5c(c4)OCO5)[C@H]12)OC3=O (stereo partly shown) [DETD-61]    5.18
3  C=C1C(=O)OC2CC3=C[C@@H](C/C(C)=C/[C@@H](OC(=O)C(C)(OC)c4ccc5ccccc5c4)[C@H]12)OC3=O (stereo partly shown) [DETD-55]    5.05
4  C=C1C(=O)OC2CC3=C[C@@H](C/C(C)=C/C(OC(=O)/C=C/c4ccc(OC)c(OC)c4)[C@H]12)OC3=O (stereo partly shown) [DETD-49]  < 5.00
5  C=C1C(=O)O[C@H]2CC3=C[C@@H](C/C(C)=C/[C@@H](OC(=O)c4ccc(OC)cc4)[C@H]12)OC3=O [DETD-32]  < 5.00

**Q:** pIC50 lookup needed for C=C1C(=O)OC2CC3=C[C@@H](C/C(C)=C/C(OC(=O)Cc4ccc(OC)cc4)[C@H]12)OC3=O (stereo partly shown) [DETD-44] , thanks.
**A:** < 5.00

**Q:** pIC50 lookup needed for C=C1C(=O)OC2CC3=C[C@@H](C/C(C)=C/C(OC(=O)C(C)CCC)[C@H]12)OC3=O (stereo partly shown) [DETD-20] , thanks.
**A:** < 5.00

**Q:** pIC50 lookup needed for C=C1C(=O)OC2CC3=C[C@@H](C/C(C)=C/C(OC(=O)c4cc5ccccc5s4)[C@H]12)OC3=O (stereo partly shown) [DETD-41] , thanks.
**A:** < 5.00

**Q:** pIC50 lookup needed for C=C(C)C(=O)OC1/C=C(\C)C[C@@H]2C=C(CC3OC(=O)C(=C)[C@@H]13)C(=O)O2 (stereo partly shown) [DETD-4] , thanks.
**A:** < 5.00

**Q:** pIC50 lookup needed for C=C1C(=O)OC2CC3=C[C@@H](C/C(C)=C/C(OC(=O)/C=C/c4cccs4)[C@H]12)OC3=O (stereo partly shown) [DETD-42] , thanks.
**A:** < 5.00

**Q:** pIC50 lookup needed for C=C1C(=O)OC2CC3=C[C@@H](C/C(C)=C/C(OC(=O)/C=C(\C)C(C)C)[C@H]12)OC3=O (stereo partly shown) [DETD-12] , thanks.
**A:** < 5.00

**Q:** pIC50 lookup needed for C=C1C(=O)OC2CC3=C[C@@H](C/C(C)=C/[C@@H](OC(=O)Cc4csc5ccccc45)[C@H]12)OC3=O (stereo partly shown) [DETD-58] , thanks.
**A:** 5.08

**Q:** pIC50 lookup needed for C=C1C(=O)OC2CC3=C[C@@H](C/C(C)=C/C(O)[C@H]12)OC3=O (stereo partly shown) [DETD-3] , thanks.
**A:** < 5.00

These entries and their values trace back to patent US10238631B2.
